Cited source for all entries: patent US20110071197A1

target: Recombinant human LTC4 synthase (Homo sapiens); construct: made in house; host or cells: Pichia pastoris; assay: LTC4 synthase in vitro assay (HTRF detection of LTC4); format: biochemical; details: total concentration of title compound in the assay 10 μM; HTRF method
Sequence (Q16873 whole entry): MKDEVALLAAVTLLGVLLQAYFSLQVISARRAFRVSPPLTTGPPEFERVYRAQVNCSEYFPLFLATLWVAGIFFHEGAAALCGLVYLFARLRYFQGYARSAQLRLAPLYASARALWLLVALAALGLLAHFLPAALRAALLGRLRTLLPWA
readoutLabel: inhibition at 10 µM (%)
One number for each entry, in %.

>  <molSmiles>
O=C(Nc1ccc(Oc2ccc([N+](=O)[O-])c(C(=O)O)c2)cc1C(=O)O)c1ccc(C(F)(F)F)cc1

>  <readoutLabel>
inhibition at 10 µM

>  <assayValue>
86

$$$$
>  <molSmiles>
O=C(O)c1cc(Oc2ccc(S(=O)(=O)Nc3ccc(F)c(F)c3)cc2)ccc1NC(=O)c1cccc(Cl)c1Cl

>  <readoutLabel>
inhibition at 10 µM

>  <assayValue>
100

$$$$
>  <molSmiles>
O=C(O)c1cc(Oc2ccc(N(c3ccc(C(=O)C4CC4)cc3)c3ccc(C(=O)C4CC4)cc3)cc2)ccc1Nc1ccc(C(=O)C2CC2)cc1

>  <readoutLabel>
inhibition at 10 µM

>  <assayValue>
87

$$$$
>  <molSmiles>
O=C(O)c1cc(Oc2ccc(Nc3ccc(F)cc3)c(C(=O)O)c2)ccc1Nc1ccc(F)cc1

>  <readoutLabel>
inhibition at 10 µM

>  <assayValue>
97

$$$$
>  <molSmiles>
CCCCc1ccc(C(=O)Nc2ccc(Oc3ccc(NC(=O)c4ccc(CCCC)cc4)c(C(=O)O)c3)cc2C(=O)O)cc1

>  <readoutLabel>
inhibition at 10 µM

>  <assayValue>
99

$$$$

For each of the molecules below, state inhibition at 10 µM.
1. CCCCOc1ccc(S(=O)(=O)Nc2ccc(Oc3cccc(NCc4cccc(Cl)c4F)c3)cc2C(=O)O)cc1
2. O=C(O)c1cc(Oc2ccc(Nc3ccc(F)c(F)c3)c(C(=O)O)c2)ccc1Nc1ccc(C(F)(F)F)nc1

1. 99
2. 99
